The measured values listed here are drawn from patent US20220267412A1.

Provide the recorded amount of purified protein to fully inhibit PPE (typically 160 nM, 200 uL, +40 mM 2-ME) for the entries that follow.
# target-entity: porcine pancreatic elastase (porcine, UniProt P00772 27-266)
# Sequence (P00772 27-266): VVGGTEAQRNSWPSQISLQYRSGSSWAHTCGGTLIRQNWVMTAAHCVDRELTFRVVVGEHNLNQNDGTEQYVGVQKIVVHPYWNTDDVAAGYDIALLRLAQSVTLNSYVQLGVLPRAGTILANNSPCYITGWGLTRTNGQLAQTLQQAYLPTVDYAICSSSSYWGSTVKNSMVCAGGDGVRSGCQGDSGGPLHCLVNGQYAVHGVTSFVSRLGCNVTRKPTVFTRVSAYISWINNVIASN
# assay-info: cell-based or functional assay
Give bare numbers, in µg.

See these solved cases before continuing.
human serpin B1 C344A variant (other) MEQLSSANTRFALDLFLALSENNPAGNIFISPFSISSAMAMVFLGTRGNTAAQLSKTFHFNTVEEVHSRFQSLNADINKRGASYILKLANRLYGEKTYNFLPEFLVSTQKTYGADLASVDFQHASEDARKTINQWVKGQTEGKIPELLASGMVDNMTKLVLVNAIYFKGNWKDKFMKEATTNAPFRLNKKDRKTVKMMYQKKKFAYGYIEDLKCRVLELPYQGEELSMVILLPDDIEDESTGLKKIEEQLTLEKLHEWTKPENLDFIEVNVSLPRFKLEESYTLNSDLARLGVQDLFNSSKADLSGMSGARDIFISKIVHKSFVEVNEEGTEAAAATAGIATFAMLMPEENFTADHPFLFFIRHNSSGSILFLGRFSSP : 1
human serpin B1 C344G variant (other) MEQLSSANTRFALDLFLALSENNPAGNIFISPFSISSAMAMVFLGTRGNTAAQLSKTFHFNTVEEVHSRFQSLNADINKRGASYILKLANRLYGEKTYNFLPEFLVSTQKTYGADLASVDFQHASEDARKTINQWVKGQTEGKIPELLASGMVDNMTKLVLVNAIYFKGNWKDKFMKEATTNAPFRLNKKDRKTVKMMYQKKKFAYGYIEDLKCRVLELPYQGEELSMVILLPDDIEDESTGLKKIEEQLTLEKLHEWTKPENLDFIEVNVSLPRFKLEESYTLNSDLARLGVQDLFNSSKADLSGMSGARDIFISKIVHKSFVEVNEEGTEAAAATAGIATFGMLMPEENFTADHPFLFFIRHNSSGSILFLGRFSSP : 3.5

Read the next record carefully.
In: Identify measured amount of purified protein to fully inhibit PPE (typically 160 nM, 200 uL, +40 mM 2-ME) corresponding to recombinant human serpin B1, wild type (rhsB1-cys344), reduced active monomer (other) MEQLSSANTRFALDLFLALSENNPAGNIFISPFSISSAMAMVFLGTRGNTAAQLSKTFHFNTVEEVHSRFQSLNADINKRGASYILKLANRLYGEKTYNFLPEFLVSTQKTYGADLASVDFQHASEDARKTINQWVKGQTEGKIPELLASGMVDNMTKLVLVNAIYFKGNWKDKFMKEATTNAPFRLNKKDRKTVKMMYQKKKFAYGYIEDLKCRVLELPYQGEELSMVILLPDDIEDESTGLKKIEEQLTLEKLHEWTKPENLDFIEVNVSLPRFKLEESYTLNSDLARLGVQDLFNSSKADLSGMSGARDIFISKIVHKSFVEVNEEGTEAAAATAGIATFCMLMPEENFTADHPFLFFIRHNSSGSILFLGRFSSP
Out: 1
